Reference for the values: PubChem BioAssay AID1259407

- System: CCRIS mutagenicity, Ames/micronucleus/aberration tests
- ASSAY NAME: CCRIS mutagenicity studies
- CONDITIONS: Test System: AMES SALMONELLA TYPHIMURIUM; Strain/Indicator: TA98; Metabolic Activation: NONE; Method: STANDARD PLATE
Activity calls are given as the source filed them. How the calls were made is not given here.
Please state which outcome applies, choosing from y for active, n for inactive

Example results:
> print(dat)
                            compound.string  group.label
1  CSCC[C@H](NC(=O)[C@@H](N)Cc1c[nH]c2ccccc12)C(=O)N[C@@H](CC(=O)O)C(=O)N[C@@H](Cc1ccccc1)C(N)=O            n
2       CC(C)(C)NC[C@H](O)COc1ccccc1C1CCCC1            y
3      CCOC(=O)CNC(=O)CCCCSc1ncnc2nc[nH]c12            n

Kindly provide the recorded test outcome for the following compound: CCOP(=O)(OCC)Oc1ccc([N+](=O)[O-])cc1 y

###

- Tested on: CCRIS mutagenicity, Ames/micronucleus/aberration tests
- ASSAY NAME: CCRIS mutagenicity studies
- CONDITIONS: Test System: AMES SALMONELLA TYPHIMURIUM; Strain/Indicator: TA97; Metabolic Activation: HAMSTER, LIVER, S-9, AROCLOR 1254 (30%); Method: PREINCUBATION
Calls of active or inactive are those of the source. No rule for the calls is given here.
Please state which outcome applies, choosing from 1 (active), -1 (inactive)

Example results:
> print(dat)
                          molecule  group.label
1                 CC(=O)NNc1ccccc1            1
2                        Cl/C=C\Cl           -1
3              Oc1c(Cl)ccc(Cl)c1Cl           -1
4  CCCCC(CC)CN (centres undefined)           -1

Kindly provide the recorded test outcome for the following molecule: Cc1ccc(CO)cc1 -1

Kindly provide the recorded test outcome for the following molecule: CC=C(C)C#N -1

###

- Tested on: CCRIS mutagenicity, Ames/micronucleus/aberration tests
- ASSAY NAME: CCRIS mutagenicity studies
- CONDITIONS: Test System: AMES SALMONELLA TYPHIMURIUM; Strain/Indicator: TA1535; Metabolic Activation: HAMSTER, LIVER, S-9, AROCLOR 1254; Method: PREINCUBATION
Calls of active or inactive are those of the source. No rule for the calls is given here.
Please state which outcome applies, choosing from yes for active, no for inactive

Kindly provide the recorded test outcome for the following compound: O=[N+]([O-])c1cc(Cl)c(Cl)c(Cl)c1Cl no

Kindly provide the recorded test outcome for the following compound: Cc1ccc(C)cc1 no

Kindly provide the recorded test outcome for the following compound: C=CCOC(=O)CC(C)C no

Kindly provide the recorded test outcome for the following compound: CCN=[N+](C)[O-] no

###

- Test system: CCRIS mutagenicity, Ames/micronucleus/aberration tests
- ASSAY NAME: CCRIS mutagenicity studies
- CONDITIONS: Test System: CHINESE HAMSTER V-79; Strain/Indicator: V-79/6-THIOGUANINE; Metabolic Activation: NONE
Calls of active or inactive are those of the source. The rule behind the calls is not given here.
Please state which outcome applies, choosing from active, inactive

Example results:
> print(dat)
                                   molecule  group.label
1   Oc1ccc2ccc3c4ccc5ccccc5c4c4c(c3c2c1O)O4       active
2           Cc1c(N(C)C)c(=O)n(-c2ccccc2)n1C     inactive
3  CC(CN1c2ccccc2Sc2ccccc21)N(C)C (stereo not drawn)     inactive
4                           O=C/C=C/C=C/C=O       active

Then there is this molecule:
Kindly provide the recorded test outcome for the following molecule: CCC(C)OS(C)(=O)=O (stereo not drawn) active
